Data credit: patent US12187723B2

assayed system: human TLR7 (Homo sapiens)
Sequence (Q9NYK1 27-1049): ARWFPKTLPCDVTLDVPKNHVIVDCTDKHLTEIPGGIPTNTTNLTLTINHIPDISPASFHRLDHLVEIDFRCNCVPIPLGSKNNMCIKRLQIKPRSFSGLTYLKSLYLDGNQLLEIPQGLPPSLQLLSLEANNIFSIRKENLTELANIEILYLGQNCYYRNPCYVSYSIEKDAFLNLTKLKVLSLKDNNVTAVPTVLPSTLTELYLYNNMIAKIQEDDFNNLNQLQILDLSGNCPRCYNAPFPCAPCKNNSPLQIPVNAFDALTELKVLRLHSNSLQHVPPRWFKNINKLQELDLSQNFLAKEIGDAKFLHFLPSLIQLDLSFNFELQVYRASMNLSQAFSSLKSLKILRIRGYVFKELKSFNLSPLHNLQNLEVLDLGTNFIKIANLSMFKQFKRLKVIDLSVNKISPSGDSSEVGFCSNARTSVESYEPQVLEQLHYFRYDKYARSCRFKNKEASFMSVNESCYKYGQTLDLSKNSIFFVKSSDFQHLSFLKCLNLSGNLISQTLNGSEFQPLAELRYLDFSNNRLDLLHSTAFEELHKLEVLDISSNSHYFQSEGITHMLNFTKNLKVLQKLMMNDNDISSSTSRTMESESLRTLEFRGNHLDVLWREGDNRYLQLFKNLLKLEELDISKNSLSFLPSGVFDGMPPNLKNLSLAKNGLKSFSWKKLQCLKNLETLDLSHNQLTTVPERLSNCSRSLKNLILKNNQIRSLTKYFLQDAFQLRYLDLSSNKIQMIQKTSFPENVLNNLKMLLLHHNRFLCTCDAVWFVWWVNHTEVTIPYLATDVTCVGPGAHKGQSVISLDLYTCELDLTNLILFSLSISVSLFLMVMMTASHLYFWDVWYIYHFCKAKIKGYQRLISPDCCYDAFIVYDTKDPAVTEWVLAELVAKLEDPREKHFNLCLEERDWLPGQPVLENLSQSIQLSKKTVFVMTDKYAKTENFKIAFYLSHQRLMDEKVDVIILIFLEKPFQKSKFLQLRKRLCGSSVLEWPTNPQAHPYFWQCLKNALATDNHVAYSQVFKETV
protocol: TLR7 inhibition reporter assay (HEK-Blue SEAP)
experimental conditions: HEK-Blue cells overexpressing human TLR7, gardiquimod 7.5 μM, 22 hour incubation
Method: TLR7/8/9 Inhibition Reporter Assays Briefly, cells are seeded into Greiner 384 well plates (15000 cells per well for TLR7, 20,000 for TLR8 and 25,000 for TLR9) and then treated with test compounds in DMSO to yield a final dose response concentration range of 0.05 nM-50 μM. […] The percent inhibition is determined as the % reduction in the HEK-Blue signal present in wells treated with agonist plus DMSO alone compared to wells treated with a known inhibitor.
metric: IC50 (µM)

{"compound": "CCN[C@H]1CC[C@@H](n2c(=O)[nH]c3cc(-c4cc(OC)c5ncnn5c4)c(C)cc32)CC1", "metric": "IC50", "recorded result": 0.0451}
{"compound": "COc1cc(-c2cc3[nH]c(=O)n(C4CCC(N5C6CCC5COC6)CC4)c3cc2C(C)C)cn2ncnc12 (single isomer, unassigned) [Example 252]", "metric": "IC50", "recorded result": 0.0405}
{"compound": "COc1cc(-c2cc3[nH]c(=O)n(C4CCC(N5CCNC(=O)C5)CC4)c3cc2C(C)C)cn2ncnc12 (centres unmarked) [Example 243]", "metric": "IC50", "recorded result": 0.119}

1: CCC(CC)N1CCC[C@@H](n2c(=O)[nH]c3cc(-c4cc(OC)c5ncnn5c4)c(C)cc32)C1
2: COc1cc(-c2cc3[nH]c(=O)n([C@H]4CC[C@@H](NC5CCOCC5)CC4)c3cc2C)cn2ncnc12
3: COC1CN(C2CCC(n3c(=O)[nH]c4cc(-c5cn6ncnc6c(C)c5C)c(C(C)C)cc43)CC2)C1 (single isomer, unassigned) [Example 278]
Challenge: Please rank these compounds by IC50 in descending order. Form entry: labels listed in requested order.
Response given: 1, 2, 3
(1: 0.033 µM, 2: 0.0182 µM, 3: 0.00788 µM)

P: CCc1cc2c(cc1-c1cc(OC)c3ncnn3c1)[nH]c(=O)n2[C@@H]1CCCNC1
Q: COc1cc(-c2cc3[nH]c(=O)n([C@H]4CC[C@@H](N(C)C(C)C)CC4)c3cc2C)cn2ncnc12
Challenge: Parameter metric = IC50. Return the lower-valued option from P and Q . Respond with the label that goes with your answer.
Response given: P
(P: 0.00547 µM, Q: 0.016 µM)

a: COc1cc(-c2cc3[nH]c(=O)n(C4CCN(C(C)C)CC4)c3cc2C(C)C)cn2ncnc12
b: COc1cc(-c2cc3[nH]c(=O)n([C@@H]4CCCN(CC(C)(C)C)C4)c3cc2C(C)C)cn2ncnc12
c: Cc1cc2c(cc1-c1cc(C)c3ncnn3c1)[nH]c(=O)n2[C@@H]1CCCN(CC2CC2)C1
d: Cc1cc2c(cc1-c1cc(C)c3ncnn3c1)[nH]c(=O)n2[C@H]1CC[C@@H](NCC(C)(C)C)CC1
Challenge: Ascending sort, IC50. Form entry: labels listed in requested order.
Response given: b, a, d, c

* * *

assayed system: human TLR7 (Homo sapiens)
protocol: TLR7 inhibition reporter assay (HEK-Blue SEAP)
experimental conditions: HEK-Blue cells overexpressing human TLR7, gardiquimod 7.5 μM, 22 hour incubation
metric: IC50 (nM)
Reply with just the number (in nM).

Use the examples below as a reference point.
{"compound smiles": "COc1cc(-c2cc3[nH]c(=O)n([C@@H]4CCCN(CC(=O)N(C)C)C4)c3cc2C)cn2ncnc12", "IC50 / nM": 391}
{"compound smiles": "Cc1cc(-c2cc(C)c3ncnn3c2)cc2[nH]c(=O)n(C3CCN(C)CC3)c12", "IC50 / nM": 29.7}

From here, focus on the item given below.
For reference, reported IC50 for COc1cc(-c2cc3[nH]c(=O)n(C4CCN(CC5CCOCC5)CC4)c3cc2C(C)C)cn2ncnc12 stands at 7.23
